assay: Isomerization without enzyme (Example 3), maltose; details: electrolytic water; remark (3): reaction time 6 h, initial pH 10.0-11.0; blank 0-0.4%
Could you please mark condition met for values of Isomerization ratio Maltose Electrolytic water below 40% and condition not met for values at or above it?

Worked examples follow.
Asked: Quick check: Isomerization ratio Maltose Electrolytic water of CC([CH2][Ge](=[O])[O][Ge](=[O])[CH2]C(C)C(=O)O)C(=O)O (stereo not drawn) [Compound 3] under 40%?
Given back: condition not met

Asked: Please state whether Isomerization ratio Maltose Electrolytic water is below 40% for C[CH](CC(=O)O)[Ge](=[O])[O][Ge](=[O])[CH](C)CC(=O)O (stereo not drawn) [Compound 2]
Given back: condition not met

Asked: Does the reported Isomerization ratio Maltose Electrolytic water of CC(C(=O)O)[CH](C)[Ge](=[O])[O][Ge](=[O])[CH](C)C(C)C(=O)O (stereo not drawn) [Compound 4] stay below 40%?
Given back: condition met

Asked: Strictly below 40%: is that where Isomerization ratio Maltose Electrolytic water of O=C(O)C[CH2][Ge](=[O])[O][Ge](=[O])[CH2]CC(=O)O [Compound 1] sits?
Given back: condition not met

Asked: Take the compound O=C(O)C[CH](c1ccccc1)[Ge](=[O])[O][Ge](=[O])[CH](CC(=O)O)c1ccccc1 (stereo not drawn) [Compound 6] and say whether its Isomerization ratio Maltose Electrolytic water is less than 40%.
Given back: condition met

New cases:
Asked: Does C[C](C)(CC(=O)O)[Ge](=[O])[O][Ge](=[O])[C](C)(C)CC(=O)O [Compound 5] have Isomerization ratio Maltose Electrolytic water strictly under 40%?
Given back: condition met

====

experiment: Isomerization without enzyme (Example 3), maltose; conditions: NaOH; remark (3): reaction time 6 h, initial pH 10.0-11.0; blank 34.0-38.6%
Catalogue of Isomerization ratio Maltose NaOH values
Please don't drop the unit; write it after the number.

Answered examples (5):
Asked: Tell me measured Isomerization ratio Maltose NaOH for C[CH](CC(=O)O)[Ge](=[O])[O][Ge](=[O])[CH](C)CC(=O)O (stereo not drawn) please.
Given back: 67.4%

Asked: Specify measured Isomerization ratio Maltose NaOH for CC(C(=O)O)[CH](C)[Ge](=[O])[O][Ge](=[O])[CH](C)C(C)C(=O)O (stereo not drawn) .
Given back: 46.5%

Asked: For the compound C[C](C)(CC(=O)O)[Ge](=[O])[O][Ge](=[O])[C](C)(C)CC(=O)O , report Isomerization ratio Maltose NaOH.
Given back: 69.4%

Asked: Quick one: give measured Isomerization ratio Maltose NaOH for O=C(O)C[CH2][Ge](=[O])[O][Ge](=[O])[CH2]CC(=O)O
Given back: 68.7%

Asked: Dear colleague, please send me the reported Isomerization ratio Maltose NaOH for CC([CH2][Ge](=[O])[O][Ge](=[O])[CH2]C(C)C(=O)O)C(=O)O (stereo not drawn) when you can.
Given back: 53.7%

Next:
Asked: Annotate the compound O=C(O)C[CH](c1ccccc1)[Ge](=[O])[O][Ge](=[O])[CH](CC(=O)O)c1ccccc1 (stereo not drawn) with its measured Isomerization ratio Maltose NaOH.
Given back: 69.3%

====

experiment: Isomerization without enzyme (Example 3), ribose; conditions: NaOH; remark (2): reaction time 6 h, initial pH 10.0-10.6; blank 3.9-19.5%
// classify: if (Isomerization ratio Ribose NaOH < 40%) TRUE else FALSE

Asked: In the record for C[CH](CC(=O)O)[Ge](=[O])[O][Ge](=[O])[CH](C)CC(=O)O (stereo not drawn) , is Isomerization ratio Ribose NaOH less than 40%?
Given back: FALSE

Asked: In the record for CC([CH2][Ge](=[O])[O][Ge](=[O])[CH2]C(C)C(=O)O)C(=O)O (stereo not drawn) , is Isomerization ratio Ribose NaOH less than 40%?
Given back: TRUE

Asked: Criterion: Isomerization ratio Ribose NaOH strictly below 40%. Is it met by CC(C(=O)O)[CH](C)[Ge](=[O])[O][Ge](=[O])[CH](C)C(C)C(=O)O (stereo not drawn) ?
Given back: TRUE

Asked: Is Isomerization ratio Ribose NaOH of O=C(O)C[CH2][Ge](=[O])[O][Ge](=[O])[CH2]CC(=O)O strictly below 40%?
Given back: FALSE

Asked: Regarding C[C](C)(CC(=O)O)[Ge](=[O])[O][Ge](=[O])[C](C)(C)CC(=O)O , kindly confirm whether its Isomerization ratio Ribose NaOH is beneath 40%.
Given back: TRUE

====

assay: Isomerization without enzyme (Example 3), mannose; conditions: electrolytic water; remark (2): reaction time 6 h, initial pH 10.0-10.6; blank 0.4-1.2%
Catalogue of compounds with associated Isomerization ratio Mannose Electrolytic water
Reply numerically in %, unit not repeated.

Consider the following illustrative entries.
Asked: Please supply the value of reported Isomerization ratio Mannose Electrolytic water for the item CC(C(=O)O)[CH](C)[Ge](=[O])[O][Ge](=[O])[CH](C)C(C)C(=O)O (stereo not drawn)
Given back: 10.6

Asked: Tell me measured Isomerization ratio Mannose Electrolytic water for O=C(O)C[CH2][Ge](=[O])[O][Ge](=[O])[CH2]CC(=O)O please.
Given back: 13.1

Asked: // fetch Isomerization ratio Mannose Electrolytic water given entry O=C(O)C[CH](c1ccccc1)[Ge](=[O])[O][Ge](=[O])[CH](CC(=O)O)c1ccccc1 (stereo not drawn)
Given back: 16.4

Asked: Supply recorded Isomerization ratio Mannose Electrolytic water for CC([CH2][Ge](=[O])[O][Ge](=[O])[CH2]C(C)C(=O)O)C(=O)O (stereo not drawn) here.
Given back: 9.3

Asked: State, in one line, measured Isomerization ratio Mannose Electrolytic water of C[CH](CC(=O)O)[Ge](=[O])[O][Ge](=[O])[CH](C)CC(=O)O (stereo not drawn)
Given back: 11.4

Further cases:
Asked: Specify Isomerization ratio Mannose Electrolytic water for C[C](C)(CC(=O)O)[Ge](=[O])[O][Ge](=[O])[C](C)(C)CC(=O)O and stop.
Given back: 9.7

====

test: Isomerization without enzyme (Example 3), arabinose; details: electrolytic water; remark (2):, initial pH 10.0-10.6; blank 0.4-1.2%
Please assign -1 whenever Isomerization ratio Arabinose Electrolytic water is at or above 10%, and 1 whenever it is below.

Asked: Is 10% strictly greater than the compound's reported Isomerization ratio Arabinose Electrolytic water? compound: C[C](C)(CC(=O)O)[Ge](=[O])[O][Ge](=[O])[C](C)(C)CC(=O)O [Compound 5]
Given back: 1

Asked: Please determine if O=C(O)C[CH2][Ge](=[O])[O][Ge](=[O])[CH2]CC(=O)O [Compound 1] is below 10% in terms of Isomerization ratio Arabinose Electrolytic water.
Given back: -1

Asked: Criterion: Isomerization ratio Arabinose Electrolytic water strictly below 10%. Is it met by CC(C(=O)O)[CH](C)[Ge](=[O])[O][Ge](=[O])[CH](C)C(C)C(=O)O (stereo not drawn) [Compound 4] ?
Given back: 1

Okay, next one:
Asked: Is 10% strictly greater than the compound's reported Isomerization ratio Arabinose Electrolytic water? compound: O=C(O)C[CH](c1ccccc1)[Ge](=[O])[O][Ge](=[O])[CH](CC(=O)O)c1ccccc1 (stereo not drawn) [Compound 6]
Given back: -1

====

test: Toxicity, LD50 on oral administration to mice; conditions: mouse, in vivo, orally administered to mice
RESULT TYPE: LD50

Asked: # return recorded LD50 for input O=C(O)C[CH2][Ge](=[O])[O][Ge](=[O])[CH2]CC(=O)O
Given back: ≥ 6000 mg/kg

====

assay: Toxicity, LD50 on oral administration to rats; conditions: rat, in vivo, orally administered to rats
RESULT TYPE: LD50

Asked: Output LD50 of O=C(O)C[CH2][Ge](=[O])[O][Ge](=[O])[CH2]CC(=O)O
Given back: ≥ 10000 mg/kg

====

# Isomerization ratio Glucose Electrolytic water per entry
test: Isomerization without enzyme (Example 3), glucose; settings: electrolytic water; remark (1): initial pH 8.0-8.53; blank 2.1-3.1%
The response must be a number in % with no trailing unit.

Asked: State its Isomerization ratio Glucose Electrolytic water for this compound: O=C(O)C[CH](c1ccccc1)[Ge](=[O])[O][Ge](=[O])[CH](CC(=O)O)c1ccccc1 (stereo not drawn)
Given back: 83.8

---
Asked: Output Isomerization ratio Glucose Electrolytic water of CC([CH2][Ge](=[O])[O][Ge](=[O])[CH2]C(C)C(=O)O)C(=O)O (stereo not drawn)
Given back: 86.2

Asked: Return value of Isomerization ratio Glucose Electrolytic water for input O=C(O)C[CH2][Ge](=[O])[O][Ge](=[O])[CH2]CC(=O)O , no commentary.
Given back: 94.7

Asked: // fetch Isomerization ratio Glucose Electrolytic water given entry C[CH](CC(=O)O)[Ge](=[O])[O][Ge](=[O])[CH](C)CC(=O)O (stereo not drawn)
Given back: 95.8

Asked: Supply recorded Isomerization ratio Glucose Electrolytic water for C[C](C)(CC(=O)O)[Ge](=[O])[O][Ge](=[O])[C](C)(C)CC(=O)O here.
Given back: 75.3

Asked: Given CC(C(=O)O)[CH](C)[Ge](=[O])[O][Ge](=[O])[CH](C)C(C)C(=O)O (stereo not drawn) , respond with its Isomerization ratio Glucose Electrolytic water.
Given back: 77.6
